Target: T1, natriuretic peptide receptor-B (human)
T1 chain: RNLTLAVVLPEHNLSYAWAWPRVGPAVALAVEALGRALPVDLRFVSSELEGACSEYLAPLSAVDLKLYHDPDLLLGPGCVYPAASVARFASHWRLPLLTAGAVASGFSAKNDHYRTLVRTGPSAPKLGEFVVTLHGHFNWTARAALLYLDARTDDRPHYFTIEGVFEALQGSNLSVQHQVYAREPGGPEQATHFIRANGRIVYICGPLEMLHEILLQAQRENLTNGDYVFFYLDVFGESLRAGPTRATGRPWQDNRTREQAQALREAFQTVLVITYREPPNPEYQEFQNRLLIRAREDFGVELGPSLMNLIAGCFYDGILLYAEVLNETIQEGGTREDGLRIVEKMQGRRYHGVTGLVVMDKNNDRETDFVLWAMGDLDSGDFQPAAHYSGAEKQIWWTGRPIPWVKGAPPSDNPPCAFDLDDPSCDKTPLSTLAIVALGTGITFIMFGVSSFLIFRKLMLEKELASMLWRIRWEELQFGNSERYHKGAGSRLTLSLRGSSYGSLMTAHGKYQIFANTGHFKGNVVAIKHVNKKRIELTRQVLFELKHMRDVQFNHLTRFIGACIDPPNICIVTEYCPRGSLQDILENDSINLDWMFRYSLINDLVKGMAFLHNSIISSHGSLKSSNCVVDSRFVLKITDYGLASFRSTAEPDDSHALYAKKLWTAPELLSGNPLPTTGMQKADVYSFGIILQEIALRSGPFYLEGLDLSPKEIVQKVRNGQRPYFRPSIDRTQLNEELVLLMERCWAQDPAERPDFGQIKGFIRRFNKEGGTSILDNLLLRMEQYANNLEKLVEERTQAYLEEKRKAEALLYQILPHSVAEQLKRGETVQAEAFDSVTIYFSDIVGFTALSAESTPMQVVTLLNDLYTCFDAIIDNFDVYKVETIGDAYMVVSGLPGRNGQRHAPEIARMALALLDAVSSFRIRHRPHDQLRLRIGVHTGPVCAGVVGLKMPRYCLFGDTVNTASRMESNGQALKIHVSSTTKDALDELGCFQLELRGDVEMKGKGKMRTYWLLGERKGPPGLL
Assay: cell-based or functional assay
Numbered stars: 1 amine (or outer) side, 2 acyl side, 3 side chain; on linkers, the order of the positions; unused ones are H or OH. Square brackets hold non-standard residues; d marks the D form. Ends that are not written are not given here. * marks the point of attachment. cDR = (S)-2-((S)-3-(carboxymethyl)-2-oxopiperazin-1-yl)-5-guanidinopentanoic acid, N=C(N)NCCC[C@@H](C(=O)[*:2])N1CCN([*:1])[C@@H](CC(=O)[*:3])C1=O; Pro(trans-4-NH2) = O=C([C@@H]1C[C@@H](N[*:3])CN1[*:1])[*:2]; Sni = (S)-nipecotic acid, O=C([C@H]1CCCN([*:1])C1)[*:2]; cisHyp = O=C(O)[C@@H]1C[C@H](O)CN1; Hyp = O=C(O)[C@@H]1C[C@@H](O)CN1; NMeF = CN[C@@H](Cc1ccccc1)C(=O)O; Gly(cPr) = N[C@H](C(=O)O)C1CC1; AR‑385‑017 = not defined here; NMeL = CN[C@@H](CC(C)C)C(=O)O; dOrn = NCCC[C@@H](N)C(=O)O; Nle = CCCC[C@H](N)C(=O)O; Octanoyl = CCCCCCCC(=O)*; Che = not defined here; Deg = CCC(N)(CC)C(=O)O; Et2 = not defined here; aze = not defined here; leu = not defined here; Aib = CC(C)(N)C(=O)O; Occ = octanoic acid; Dha = C=C(N)C(=O)O
Overview of reported EC50 group, cGMP in GTM-3 cells across a group of binders:

Some binders with recorded EC50 group, cGMP in GTM-3 cells:
[Occ][Sni]F[AR‑385‑017]L[Hyp][NMeL]DRI-NH2 (reading uncertain; also: printed as Occ-Sni-Phe-(AR-385-017)-Leu-Hyp-Nml-Asp-Arg-Ile-NH2) [JAL-1886] | ≤ 5 µM
Octanoyl-[dA]F[dL]L[Hyp][NMeL]DR[Aib]-NH2 [JAL-1413] | ≤ 5 µM
Octanoyl-AFLL[Hyp][NMeL]DR[Deg]-NH2 (also: lower-case ala, leu: meaning not given here) [JAL-1416] | ≤ 1 µM
Octanoyl-[dA]F[dL]L[Hyp][NMeL]D[Nle]I-NH2 [JAL-1360] | ≤ 15 µM
[Occ][Sni]F[leu]L[Pro(trans-4-NH2)][NMeL]VP[Che] (reading uncertain; also: printed as Occ-Sni-Phe-leu-Leu-Tap-Nml-Val-Pro-Che) [JAL-1654] | ≤ 1 µM

Data request: Identify the reported EC50 group, cGMP in GTM-3 cells for the following entry. Octanoyl-[dA]FGLPL[cDR]I-NH2 [JAL-1037]
Data returned: ≤ 15 µM

Data request: Identify the reported EC50 group, cGMP in GTM-3 cells for the following entry. Octanoyl-[dA][NMeF][dOrn]L[Hyp][NMeL]DRI-NH2 [JAL-1269]
Data returned: ≤ 5 µM

Data request: Identify the reported EC50 group, cGMP in GTM-3 cells for the following entry. Octanoyl-[aze]FGLKLDRI-NH2 (reading uncertain; also: printed as Occ-aze-Phe-Gly-Leu-Lys-Leu-Asp-Arg-Ile-NH2) [JAL-0740]
Data returned: ≤ 15 µM

Data request: Identify the reported EC50 group, cGMP in GTM-3 cells for the following entry. Octanoyl-[Sni]F[dL]L[Pro(trans-4-NH2)](Et2)[NMeL]DRI-NH2 (reading uncertain; also: printed as Occ-Sni-Phe-leu-Leu-Tap(Et2)-Nml-Asp-Arg-Ile-NH2) [JAL-1348]
Data returned: ≤ 5 µM

Data request: Identify the reported EC50 group, cGMP in GTM-3 cells for the following entry. Octanoyl-AFLL[Hyp][NMeL][Gly(cPr)]RI-NH2 (also: lower-case ala, leu: meaning not given here) [JAL-1424]
Data returned: ≤ 15 µM

Data request: Identify the reported EC50 group, cGMP in GTM-3 cells for the following entry. [Occ][Sni]F[Dha]L[Hyp][NMeL]DRI-NH2 [JAL-1915_2]
Data returned: ≤ 5 µM

Data request: Identify the reported EC50 group, cGMP in GTM-3 cells for the following entry. [Occ][Sni]FLL[Hyp][NMeL]NR[Che] (not fully specified (residue 4); printed as Occ-Sni-Phe-leu-Leu-Hyp-Nml-Asn-Arg-Che; reading uncertain) [JAL-1751]
Data returned: ≤ 15 µM

Data request: Identify the reported EC50 group, cGMP in GTM-3 cells for the following entry. [Occ][dA]FGL[cisHyp]LDRI-NH2 [JAL-0964]
Data returned: ≤ 15 µM
